# assayedSystem: Factor D (Homo sapiens (Human), UniProt P00746)
# Sequence (P00746 26-253): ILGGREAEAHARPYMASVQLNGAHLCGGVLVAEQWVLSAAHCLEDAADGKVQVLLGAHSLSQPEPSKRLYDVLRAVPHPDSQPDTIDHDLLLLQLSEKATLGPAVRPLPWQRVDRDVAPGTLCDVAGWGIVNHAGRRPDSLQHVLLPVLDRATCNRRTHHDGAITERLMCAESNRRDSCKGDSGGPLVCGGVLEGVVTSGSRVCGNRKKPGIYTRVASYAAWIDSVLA
# protocolDescription: biochemical
# Assay type: biochemical
# conditionLabel: read-out: IC50

{"smi": "CCO[C@H]1[C@@H](C(=O)NCc2cccc(Cl)c2F)N(C(=O)Cn2cc(C(C)=O)c3ccccc32)C[C@@H]1F", "assayedSystem": "Factor D (Homo sapiens (Human), UniProt P00746)", "u": "nM", "IC50": 13}
{"smi": "COC(=O)COc1ccc2c(C(N)=O)cn(CC(=O)N3C[C@H](F)C[C@H]3C(=O)NCc3cccc(Cl)c3F)c2c1", "assayedSystem": "Factor D (Homo sapiens (Human), UniProt P00746)", "u": "nM", "IC50": 115}
{"smi": "Cc1ccc(CNC(=O)[C@@H]2C[C@H](N)CN2C(=O)Nc2cn(C(N)=O)c3ccccc23)cc1Cl", "assayedSystem": "Factor D (Homo sapiens (Human), UniProt P00746)", "u": "nM", "IC50": 6400}
{"smi": "NC(=O)n1cc(NC(=O)N2C[C@@H](N)C[C@H]2C(=O)NCC2CCCCC2)c2ccccc21", "assayedSystem": "Factor D (Homo sapiens (Human), UniProt P00746)", "u": "nM", "IC50": 3650}
{"smi": "NC(=O)n1cc(NC(=O)N2C[C@H](N)[C@@H](O)[C@H]2C(=O)NCc2cccc(Cl)c2F)c2ccccc21", "assayedSystem": "Factor D (Homo sapiens (Human), UniProt P00746)", "u": "nM", "IC50": 315}
{"smi": "NC(=O)n1cc(CC(=O)N2CC[C@@H](O)[C@H]2C(=O)NCc2cccc(Cl)c2F)c2ccccc21", "assayedSystem": "Factor D (Homo sapiens (Human), UniProt P00746)", "u": "nM", "IC50": 243}
{"smi": "NC(=O)n1cc(NC(=O)N2CCS[C@H]2C(=O)Nc2cc(Br)cc(C(=O)O)c2)c2ccccc21", "assayedSystem": "Factor D (Homo sapiens (Human), UniProt P00746)", "u": "nM", "IC50": 95}
